Tested on: SK-OV3 (ovarian cancer)
RUN_DESCRIPTION: In vitro cytotoxicity against human cancer cell lines
RUN_CONDITIONS: read-out: In vitro cytotoxicities, IC50
ASSAY_ENDPOINT: IC50
Include the unit right after the number.

Request: What value of IC50 has been reported for the following compound? N.N.O=C([O-])C1(C(=O)[O-])CCC1.[Pt+2]
Response: 76.5 µM

Entry source: patent US8030506B2
